meta.source: paper PMC7037283

- System: A549
- Assay protocol: MTT anti-proliferative assay, A549
- Type: cell-based
- Assay setup: Homo sapiens, 48 h treatment
Value type: pIC50
Quick note: pIC50 values are minus log10 of concentrations in mol/L.

• O=C(Nc1ccc(Oc2ccnc(C(=O)NCCS)c2)cc1)Nc1ccc(Cl)c(C(F)(F)F)c1 [Compound 10b] = 3.35
• O=C(Nc1ccc(Oc2ccnc(C(=O)NCCO)c2)cc1)Nc1ccc(Cl)c(C(F)(F)F)c1 [Compound 10a] = 3.54
• CC(CO)NNC(=O)c1cc(Oc2ccc(NC(=O)Nc3ccc(Cl)c(C(F)(F)F)c3)cc2)ccn1 (stereo not drawn) [Compound 15a] = 4.34

Now look at this one.
Find the recorded pIC50 belonging to CNC(=O)c1cc(Oc2ccc(NC(=O)Nc3ccc(Cl)c(C(F)(F)F)c3)cc2)ccn1 [Sorafenib] and report it. 4.76
